# Target of assay: native mouse MET on living cells (mouse, UniProt P16056 25-1379)
# Assay notes: cell-based or functional assay
Reported metric: protection from staurosporine-induced apoptosis EMAX, MLP29 cells
Report as: number unit

get_value(item= 72F8 chimeric llama-human IgG1 mAb (antibody, V domains shown, human IgG1 CH1-CH2-CH3 and human CL lambda) VH: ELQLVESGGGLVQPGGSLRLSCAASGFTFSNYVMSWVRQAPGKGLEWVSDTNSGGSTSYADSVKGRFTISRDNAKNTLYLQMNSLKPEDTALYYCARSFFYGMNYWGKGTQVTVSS VL: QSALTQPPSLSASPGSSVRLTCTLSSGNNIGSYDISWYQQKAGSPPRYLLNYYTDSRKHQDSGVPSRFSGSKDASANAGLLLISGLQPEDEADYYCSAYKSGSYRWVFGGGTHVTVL , readout=protection from staurosporine-induced apoptosis EMAX, MLP29 cells) returns 43.8%

response.value for 76H10 chimeric llama-human IgG1 mAb (antibody, V domains shown, human IgG1 CH1-CH2-CH3 and human CL lambda) VH: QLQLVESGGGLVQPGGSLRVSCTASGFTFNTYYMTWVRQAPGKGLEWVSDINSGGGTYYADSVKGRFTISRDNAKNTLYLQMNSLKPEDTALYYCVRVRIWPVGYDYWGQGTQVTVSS VL: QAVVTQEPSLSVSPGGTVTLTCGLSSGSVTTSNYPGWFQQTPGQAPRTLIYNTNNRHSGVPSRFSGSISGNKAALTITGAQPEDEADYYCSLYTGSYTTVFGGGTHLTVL (field: protection from staurosporine-induced apoptosis EMAX, MLP29 cells) = 27.2%

Entry 71G2 chimeric llama-human IgG1 mAb (antibody, V domains shown, human IgG1 CH1-CH2-CH3 and human CL lambda; also called 71G2 Human IgG1/lambda) VH: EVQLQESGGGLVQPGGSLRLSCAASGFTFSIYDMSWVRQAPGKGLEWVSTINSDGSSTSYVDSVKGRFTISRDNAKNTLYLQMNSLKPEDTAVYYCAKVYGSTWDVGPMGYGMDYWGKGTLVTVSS VL: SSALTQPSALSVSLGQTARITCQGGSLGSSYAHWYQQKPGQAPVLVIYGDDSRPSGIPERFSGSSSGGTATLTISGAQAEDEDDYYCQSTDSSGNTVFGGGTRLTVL , protection from staurosporine-induced apoptosis EMAX, MLP29 cells reported as 58.3%

Kindly note the recorded protection from staurosporine-induced apoptosis EMAX, MLP29 cells for 71A3 chimeric llama-human IgG1 mAb (antibody, V domains shown, human IgG1 CH1-CH2-CH3 and human CL lambda) VH: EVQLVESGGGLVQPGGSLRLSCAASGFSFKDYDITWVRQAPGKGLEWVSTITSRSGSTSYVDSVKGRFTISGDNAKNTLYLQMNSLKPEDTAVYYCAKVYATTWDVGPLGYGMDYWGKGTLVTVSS VL: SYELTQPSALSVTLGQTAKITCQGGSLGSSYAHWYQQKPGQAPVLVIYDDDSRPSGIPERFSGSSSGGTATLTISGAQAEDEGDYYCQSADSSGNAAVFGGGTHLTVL , which is 70.5%

The reported value for 71D4 chimeric llama-human IgG1 mAb (antibody, V domains shown, human IgG1 CH1-CH2-CH3 and human CL lambda) VH: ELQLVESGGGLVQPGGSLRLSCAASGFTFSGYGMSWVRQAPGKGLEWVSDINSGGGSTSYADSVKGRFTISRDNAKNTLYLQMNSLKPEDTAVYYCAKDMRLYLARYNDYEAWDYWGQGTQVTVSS VL: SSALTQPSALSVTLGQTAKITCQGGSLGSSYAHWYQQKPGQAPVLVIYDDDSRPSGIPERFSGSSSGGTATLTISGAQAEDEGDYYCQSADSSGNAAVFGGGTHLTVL in terms of protection from staurosporine-induced apoptosis EMAX, MLP29 cells is 52.1%
